Target: MAPK14 (human) (UniProt Q16539)
Sequence (Q16539 whole entry, looked up): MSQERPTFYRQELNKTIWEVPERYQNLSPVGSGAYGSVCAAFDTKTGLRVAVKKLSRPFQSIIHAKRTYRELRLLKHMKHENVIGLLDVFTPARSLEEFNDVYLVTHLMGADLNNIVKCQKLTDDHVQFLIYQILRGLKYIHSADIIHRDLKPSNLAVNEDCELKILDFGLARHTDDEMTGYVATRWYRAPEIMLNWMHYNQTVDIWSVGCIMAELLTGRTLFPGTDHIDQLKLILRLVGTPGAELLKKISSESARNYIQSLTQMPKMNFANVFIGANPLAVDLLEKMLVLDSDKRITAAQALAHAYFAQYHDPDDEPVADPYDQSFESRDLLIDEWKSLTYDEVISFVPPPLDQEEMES
Assay: Inhibition of LPS Stimulated TNF Production by U937 Cells
Details: concentration not given here
observed_property: inhibition (%)

Example molecules with recorded inhibition:
In [3]: df
Out[3]:
                  compound_structure_string                      system_name  observed_property  numeric_readout
0  COc1ccc(CC(=O)NCCCc2[nH]nc(-c3ccc(F)cc3)c2-c2ccncc2)cc1OC  MAPK14 (human) (UniProt Q16539)         inhibition               67
1  C[C@H](NC(=O)c1cccs1)c1[nH]nc(-c2ccc(F)cc2)c1-c1ccncc1  MAPK14 (human) (UniProt Q16539)         inhibition               21
2  Cc1ccc(S(=O)(=O)N[C@@H](Cc2ccccc2)C(=O)N[C@@H](C)c2[nH]nc(-c3ccc(F)cc3)c2-c2ccncc2)cc1  MAPK14 (human) (UniProt Q16539)         inhibition               31

a = O=C(NCc1[nH]nc(-c2ccc(F)cc2)c1-c1ccncc1)c1cccc(Cl)c1Cl
b = C[C@@H](NC(=O)c1cc(F)c(F)cc1F)c1[nH]nc(-c2ccc(F)cc2)c1-c1ccncc1
c = C[C@@H](NC(=O)c1ccc(F)cc1F)c1[nH]nc(-c2ccc(F)cc2)c1-c1ccncc1
d = COc1cc(OC)c(NC(=O)NCc2[nH]nc(-c3ccc(F)cc3)c2-c2ccncc2)cc1O
Your job: order these 4 records by inhibition, ascending. To answer, write out the labels according to the requested order. d, a, b, c
(d: 14%, a: 33%, b: 52%, c: 77%)

A = C[C@H](NC(=O)N[C@H](C)c1ccccc1)c1[nH]nc(-c2ccc(F)cc2)c1-c1ccncc1
B = O=C(NCc1[nH]nc(-c2ccc(F)cc2)c1-c1ccncc1)c1ccncc1
C = O=S(=O)(NCc1[nH]nc(-c2ccc(F)cc2)c1-c1ccncc1)c1ccccc1Cl
D = C[C@H](NC(=O)c1ccc(F)c(C(F)(F)F)c1)c1[nH]nc(-c2ccc(F)cc2)c1-c1ccncc1
Your job: order these 4 records by inhibition, ascending. To answer, write out the labels according to the requested order. B, D, A, C
(B: 3%, D: 27%, A: 41%, C: 70%)

A = Cc1ccccc1C(=O)N[C@H](C)c1[nH]nc(-c2ccc(F)cc2)c1-c1ccncc1
B = COc1ccc(C)cc1S(=O)(=O)N[C@H](C)c1[nH]nc(-c2ccc(F)cc2)c1-c1ccncc1
Would you mind telling me which has the lower recorded inhibition between A and B ? Your answer should be the label of the entry you select. A
(A: 42%, B: 92%)

I = CCNC(=O)N[C@@H](C)c1[nH]nc(-c2ccc(F)cc2)c1-c1ccncc1
II = O=C(NCc1[nH]nc(-c2ccc(F)cc2)c1-c1ccncc1)Nc1ccccc1
Would you mind telling me which has the lower recorded inhibition between I and II ? Your answer should be the label of the entry you select. II

a = CC(C)C(=O)N[C@H](C)c1[nH]nc(-c2ccc(F)cc2)c1-c1ccncc1
b = C[C@@H](NC(=O)c1ccc(C(F)(F)F)cc1)c1[nH]nc(-c2ccc(F)cc2)c1-c1ccncc1
Would you mind telling me which has the lower recorded inhibition between a and b ? Your answer should be the label of the entry you select. a

P = O=S(=O)(NCCc1[nH]nc(-c2ccc(F)cc2)c1-c1ccncc1)c1cc(Cl)cc(Cl)c1O
Q = CCCNC(=O)NCCc1[nH]nc(-c2ccc(F)cc2)c1-c1ccncc1
Would you mind telling me which has the lower recorded inhibition between P and Q ? Your answer should be the label of the entry you select. P

a = O=C(NCCc1[nH]nc(-c2ccc(F)cc2)c1-c1ccncc1)c1ccncc1
b = C[C@H](NS(=O)(=O)c1cccc(Br)c1)c1[nH]nc(-c2ccc(F)cc2)c1-c1ccncc1
Would you mind telling me which has the lower recorded inhibition between a and b ? Your answer should be the label of the entry you select. a

a = O=C(NCCc1[nH]nc(-c2ccc(F)cc2)c1-c1ccncc1)c1ccccc1
b = Cc1noc(C)c1C(=O)N[C@H](C)c1[nH]nc(-c2ccc(F)cc2)c1-c1ccncc1
Could you please tell me which of these two has the higher inhibition: a or b ? Your answer should be the label of the entry you select. b
